Cited source: the NIST ThermoML archive (doi:10.1021/je050494l)

assay: refractive index (Na D-line) (dimensionless); conditions: 298.2 K; 101.33 kPa; Liquid
Listed compounds paired with reported refractive index
Respond numerically, and do not add a unit to the figure.

// below: answered compounds
# compound, observed
measured = [
    ("c1ccccc1", 1.4972),
    ("CCCCCCCC[n+]1ccn(C)c1.COCCOCCOS(=O)(=O)[O-] [1-methyl-3-octylimidazolium 2-(2-methoxyethoxy)ethyl sulfate]", 1.466),
    ("CCCCCCC", 1.385),
]

# context switch: different compound, same refractive index
// query Report refractive index for "CCCCCCCCCCCCCCCC" please.
// result 1.4318
